// reported Clostridium difficile inhibition per item
- Tested on: Clostridium difficile ATCC BAA 1801
- protocol notes: Clostridium difficile inhibition analysis
- Assay type: cell-based
- assay setup: Table 6, ATCC BAA 1801

| compound | Clostridium difficile inhibition |
| --- | --- |
| O=C(Nc1nnc(-c2ccc(C(F)(F)F)cc2)o1)c1ccc(S(=O)(=O)Nc2ccccc2)cc1 [HSGN-118] | 0.5 |
| CN[C@H](CC(C)C)C(=O)N[C@H]1C(=O)N[C@@H](CC(N)=O)C(=O)N[C@H]2C(=O)N[C@H]3C(=O)N[C@H](C(=O)N[C@H](C(=O)O)c4cc(O)cc(O)c4-c4cc3ccc4O)[C@H](O)c3ccc(c(Cl)c3)Oc3cc2cc(c3O[C@@H]2O[C@H](CO)[C@@H](O)[C@H](O)[C@H]2O[C@H]2C[C@](C)(N)[C@H](O)[C@H](C)O2)Oc2ccc(cc2Cl)[C@H]1O [Vancomycin, reference compound] | 1 |
| CN(c1ccccc1)S(=O)(=O)c1ccc(C(=O)Nc2nnc(-c3ccc(C(F)(F)F)cc3)o2)cc1 [HSGN-161] | 1 |
| C[C@@H]1C[C@H](C)CN(S(=O)(=O)c2ccc(C(=O)Nc3nnc(-c4ccnn4C)o3)cc2)C1 [HSGN-124] | 2 |

Sourced from patent US11731964B2
